Source: paper PMC7770833

# Measurement Target: hAC (Homo sapiens, UniProt Q13510)
# Sequence (Q13510 22-395): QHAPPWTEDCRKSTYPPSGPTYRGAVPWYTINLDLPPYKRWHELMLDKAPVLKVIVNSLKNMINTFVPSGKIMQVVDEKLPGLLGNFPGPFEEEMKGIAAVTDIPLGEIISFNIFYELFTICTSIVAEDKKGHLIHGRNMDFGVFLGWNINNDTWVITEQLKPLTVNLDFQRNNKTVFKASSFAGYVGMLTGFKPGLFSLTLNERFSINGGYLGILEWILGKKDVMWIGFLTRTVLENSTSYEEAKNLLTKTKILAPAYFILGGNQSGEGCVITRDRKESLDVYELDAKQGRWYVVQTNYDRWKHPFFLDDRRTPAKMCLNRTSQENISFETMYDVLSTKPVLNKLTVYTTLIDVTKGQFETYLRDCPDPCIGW
# Measurement Description: Fluorogenic hAC assay (hAC-enriched HEK293 lysate)
# Format: biochemical
# Set-up: expressed in transfected cells; lysosome-enriched lysate
# Test Conditions: concentrations tested 1 and 10 μM where stated
# Procedure: HEK293 cells stably expressing hAC (HEK293-hAC) were generated in our laboratory using a protocol, as previously described.[30] […] The suspension was finally centrifuged at 105 000 × g for 1 h at 4 °C, and protein concentration was measured in the supernatant with a bicinchoninic acid based protein assay. […]

Compound: COCCCNC(=O)n1cc(-c2ccccc2)oc1=O [Compound 12d]
hAC inhibition, result in words: complete loss in potency
//
Compound: CC(C)CNC(=O)n1cc(-c2ccc(F)c(C3CCN(C)CC3)c2)oc1=O [Compound 25f]
hAC inhibition, result in words: complete loss in potency
//
Compound: CC(C)CNC(=O)n1cc(-c2ccc(F)cc2C2CCN(C)CC2)oc1=O [Compound 32c]
hAC inhibition, result in words: complete loss in potency
